Source of measurements: ChEMBL document CHEMBL3813596

Entries annotated with measured EC50
Molecular target: Putative P2Y purinoceptor 10 (Mus musculus)
Sequence (Q8BFU7 whole entry): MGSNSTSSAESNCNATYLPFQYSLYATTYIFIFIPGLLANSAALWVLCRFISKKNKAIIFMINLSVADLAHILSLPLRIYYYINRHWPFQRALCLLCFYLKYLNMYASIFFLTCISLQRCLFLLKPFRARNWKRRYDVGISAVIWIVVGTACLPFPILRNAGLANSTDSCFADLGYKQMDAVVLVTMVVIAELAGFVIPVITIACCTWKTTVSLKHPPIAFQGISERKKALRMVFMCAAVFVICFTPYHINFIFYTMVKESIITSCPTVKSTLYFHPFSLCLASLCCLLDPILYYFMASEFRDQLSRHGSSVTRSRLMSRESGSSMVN
Assay: Agonist activity at mouse P2Y10 receptor expressed in HEK293A cells after 1.5 hrs by alkaline phosphatase tagged-TGFalpha shedding assay
Format: cell-based, HEK293-A
Settings: read-out: EC50

# compound, experimental.target, EC50
data = [
    ("N[C@@H](COP(=O)(O)OC[C@H]1OCCC[C@@H]1OC(=O)CCc1ccccc1OCc1cccc(Oc2ccccc2)c1)C(=O)O", "Putative P2Y purinoceptor 10 (Mus musculus)", "> 1000 nM"),
    ("N[C@@H](COP(=O)(O)O[C@@H]1CCCO[C@@H]1COC(=O)CCc1ccc(OCc2cccc(Oc3ccccc3)c2)cc1)C(=O)O", "Putative P2Y purinoceptor 10 (Mus musculus)", "> 1000 nM"),
    ("N[C@@H](COP(=O)(O)OC[C@H]1OCC=C[C@H]1OC(=O)CCc1ccccc1OCc1cccc(Oc2ccccc2)c1)C(=O)O", "Putative P2Y purinoceptor 10 (Mus musculus)", "> 1000 nM"),
    ("CCCCCCCCCCCOc1ccccc1CCC(=O)OCc1cccc(OP(=O)(O)OC[C@H](N)C(=O)O)c1", "Putative P2Y purinoceptor 10 (Mus musculus)", "6.7 nM"),
    ("N[C@@H](COP(=O)(O)OC[C@H]1OCCC[C@H]1OC(=O)CCc1ccccc1OCc1cccc(Oc2ccc(Cl)cc2)c1)C(=O)O", "Putative P2Y purinoceptor 10 (Mus musculus)", "> 1000 nM"),
    ("N[C@@H](COP(=O)(O)O[C@@H]1CCCO[C@@H]1COC(=O)CCc1ccccc1OCc1cccc(Oc2ccccc2)c1)C(=O)O", "Putative P2Y purinoceptor 10 (Mus musculus)", "> 1000 nM"),
    ("CCCCCCCC/C=C\\CCCCCCCC(=O)OC[C@@H]1OCCC[C@H]1OP(=O)(O)OC[C@@H](N)C(=O)O (single isomer, unassigned)", "Putative P2Y purinoceptor 10 (Mus musculus)", "450 nM"),
]

====

Molecular target: Probable G-protein coupled receptor 34 (Mus musculus)
Experiment: Intrinsic activity at mouse GPR34 expressed in HEK293A cells cotransfected with chimeric Galphaq/il after 1.5 hrs by alkaline phosphatase tagged-TGFalpha shedding assay relative to O-(Hydroxy(((2R,3R)-2-(((3-(2-((3-phenoxybenzyl)oxy)phenyl)-propanoyl)oxy)methyl)tetrahydro-2H-pyran-3-yl)oxy)phosphoryl)-L-serine
Type: cell-based
Conditions: HEK293-A
The source made the active and inactive calls. No cut-off for these calls is given here.

# compound, experimental.target, Intrinsic activity
measured = [
    ("CCCCCCCCCCCOc1ccccc1CCC(=O)O[C@H]1C=CCO[C@@H]1COP(=O)(O)OCC(N)C(=O)O (single isomer, unassigned)", "Probable G-protein coupled receptor 34 (Mus musculus)", "inactive"),
    ("CCCCCCCC/C=C\\CCCCCCCC(=O)OC[C@@H](O)COP(=O)(O)OC[C@H](N)C(=O)O", "Probable G-protein coupled receptor 34 (Mus musculus)", 0.33),
    ("N[C@@H](COP(=O)(O)O[C@@H]1CCCO[C@@H]1COC(=O)CCc1cccc(OCc2cccc(Oc3ccccc3)c2)c1)C(=O)O", "Probable G-protein coupled receptor 34 (Mus musculus)", "inactive"),
    ("N[C@@H](COP(=O)(O)O[C@H]1C=CCO[C@@H]1COC(=O)CCc1ccccc1OCc1cccc(Oc2ccccc2)c1)C(=O)O", "Probable G-protein coupled receptor 34 (Mus musculus)", 0.25),
    ("N[C@@H](COP(=O)(O)OC[C@H]1OCCC[C@H]1OC(=O)CCc1ccc(OCc2cccc(Oc3ccccc3)c2)cc1)C(=O)O", "Probable G-protein coupled receptor 34 (Mus musculus)", "inactive"),
    ("N[C@@H](COP(=O)(O)OC[C@H]1OCCC[C@H]1OC(=O)CCc1ccccc1OCc1cccc(Oc2ccc(Cl)cc2)c1)C(=O)O", "Probable G-protein coupled receptor 34 (Mus musculus)", 1.2),
    ("CCCCCCCCCCCOc1ccccc1CCC(=O)O[C@H]1CCCO[C@@H]1COP(=O)(O)OCC(N)C(=O)O (single isomer, unassigned)", "Probable G-protein coupled receptor 34 (Mus musculus)", "inactive"),
]

====

Biological target: Putative P2Y purinoceptor 10 (Mus musculus) (UniProt Q8BFU7)
Assay: Agonist activity at mouse P2Y10 receptor expressed in HEK293A cells after 1.5 hrs by alkaline phosphatase tagged-TGFalpha shedding assay
Format: cell-based
Details: HEK293-A
Activity calls are given as the source filed them. The calls are words filed in the database; no cut-off is given here.

# molecule, Emax
data = [
    ("CCCCCCCC/C=C\\CCCCCCCC(=O)O[C@@H]1C=CCO[C@@H]1COP(=O)(O)OC[C@H](N)C(=O)O", "inactive"),
    ("N[C@@H](COP(=O)(O)O[C@@H]1CCCO[C@@H]1COC(=O)CCc1ccc(OCc2cccc(Oc3ccccc3)c2)cc1)C(=O)O", "inactive"),
    ("CCCCCCCCCCCOc1ccccc1CCC(=O)OC[C@H]1OCCC[C@@H]1OP(=O)(O)OC[C@H](N)C(=O)O", "7.5%"),
    ("N[C@@H](COP(=O)(O)O[C@@H]1CCCO[C@@H]1COC(=O)CCc1cccc(OCc2cccc(Oc3ccccc3)c2)c1)C(=O)O", "inactive"),
    ("N[C@@H](COP(=O)(O)OC[C@H]1OCCC[C@H]1OC(=O)CCc1ccccc1OCc1cccc(Oc2ccc(Cl)cc2)c1)C(=O)O", "inactive"),
    ("N[C@@H](COP(=O)(O)OC[C@H]1OCC=C[C@@H]1OC(=O)CCc1ccccc1OCc1cccc(Oc2ccccc2)c1)C(=O)O", "inactive"),
    ("CCCCCCCC/C=C\\CCCCCCCC(=O)OC[C@@H](O)COP(=O)(O)OC[C@H](N)C(=O)O", "12.5%"),
    ("CCCCCCCCCCCOc1ccccc1CCC(=O)O[C@@H]1C=CCO[C@@H]1COP(=O)(O)OCC(N)C(=O)O (single isomer, unassigned)", "inactive"),
    ("N[C@@H](COP(=O)(O)OC[C@H]1OCCC[C@H]1OC(=O)CCc1ccccc1OCc1cccc(Oc2ccccc2)c1)C(=O)O", "inactive"),
    ("CCCCCCCCCCCOc1ccccc1CCC(=O)OCc1ccccc1OP(=O)(O)OC[C@H](N)C(=O)O", "5.8%"),
    ("Cc1ccc(Oc2cccc(COc3ccccc3CCC(=O)OC[C@H]3OCCC[C@H]3OP(=O)(O)OC[C@H](N)C(=O)O)c2)cc1", "inactive"),
    ("N[C@@H](COP(=O)(O)O[C@H]1C=CCO[C@@H]1COC(=O)CCc1ccccc1OCc1cccc(Oc2ccccc2)c1)C(=O)O", "11.5%"),
    ("N[C@@H](COP(=O)(O)OC[C@H]1OCC=C[C@H]1OC(=O)CCc1ccccc1OCc1cccc(Oc2ccccc2)c1)C(=O)O", "inactive"),
    ("N[C@@H](COP(=O)(O)OC[C@H]1OCCC[C@H]1OC(=O)CCc1ccc(OCc2cccc(Oc3ccccc3)c2)cc1)C(=O)O", "inactive"),
    ("CCCCCCCCCCCOc1ccccc1CCC(=O)OC[C@H]1OCC=C[C@H]1OP(=O)(O)OC[C@H](N)C(=O)O", "12.4%"),
]

====

Molecular target: Putative P2Y purinoceptor 10 (Mus musculus) (UniProt Q8BFU7)
Assay: Agonist activity at mouse P2Y10 receptor expressed in HEK293A cells after 1.5 hrs by alkaline phosphatase tagged-TGFalpha shedding assay
Type: cell-based
Settings: HEK293-A
Calls of active or inactive are those of the source. The calls are words filed in the database; no cut-off is given here.
measured.quantity: Emax

# molecule, experimental.value
rows = [
    ("CCCCCCCCCCCOc1ccccc1CCC(=O)OCc1ccc(OP(=O)(O)OC[C@H](N)C(=O)O)cc1", "inactive"),
    ("CCCCCCCCCCCOc1ccccc1CCC(=O)O[C@H]1C=CCO[C@@H]1COP(=O)(O)OCC(N)C(=O)O (single isomer, unassigned)", "inactive"),
    ("N[C@@H](COP(=O)(O)OC[C@H]1OCCC[C@H]1OC(=O)CCc1cccc(OCc2cccc(Oc3ccccc3)c2)c1)C(=O)O", "inactive"),
    ("N[C@@H](COP(=O)(O)OC[C@H]1OCCC[C@@H]1OC(=O)CCc1ccccc1OCc1cccc(Oc2ccccc2)c1)C(=O)O", "inactive"),
    ("CCCCCCCC/C=C\\CCCCCCCC(=O)OC[C@@H]1OCC=C[C@H]1OP(=O)(O)OC[C@@H](N)C(=O)O (single isomer, unassigned)", "11.5%"),
    ("CCCCCCCCCCCOc1ccccc1CCC(=O)O[C@@H]1CCCO[C@@H]1COP(=O)(O)OCC(N)C(=O)O (single isomer, unassigned)", "inactive"),
    ("N[C@@H](COP(=O)(O)O[C@@H]1C=CCO[C@@H]1COC(=O)CCc1ccccc1OCc1cccc(Oc2ccccc2)c1)C(=O)O", "inactive"),
    ("CCCCCCCC/C=C\\CCCCCCCC(=O)OC[C@@H]1OCC=C[C@@H]1OP(=O)(O)OC[C@@H](N)C(=O)O (single isomer, unassigned)", "inactive"),
    ("CCCCCCCCCCCOc1ccccc1CCC(=O)OCc1cccc(OP(=O)(O)OC[C@H](N)C(=O)O)c1", "10.8%"),
    ("CCCCCCCCCCCOc1ccccc1CCC(=O)O[C@H]1CCCO[C@@H]1COP(=O)(O)OCC(N)C(=O)O (single isomer, unassigned)", "7.2%"),
    ("CCCCCCCC/C=C\\CCCCCCCC(=O)O[C@H]1C=CCO[C@@H]1COP(=O)(O)OC[C@H](N)C(=O)O", "inactive"),
    ("N[C@@H](COP(=O)(O)O[C@@H]1CCCO[C@@H]1COC(=O)CCc1ccccc1OCc1cccc(Oc2ccccc2)c1)C(=O)O", "inactive"),
    ("CCCCCCCCCCCOc1ccccc1CCC(=O)OC[C@H]1OCC=C[C@@H]1OP(=O)(O)OC[C@H](N)C(=O)O", "7.6%"),
    ("CCCCCCCCCCCOc1ccccc1CCC(=O)OC[C@H]1OCCC[C@H]1OP(=O)(O)OC[C@H](N)C(=O)O", "10.6%"),
    ("N[C@@H](COP(=O)(O)O[C@@H]1CCCO[C@@H]1COC(=O)CCc1ccccc1OCc1cccc(Oc2ccc(Cl)cc2)c1)C(=O)O", "inactive"),
    ("N[C@@H](COP(=O)(O)O[C@H]1CCCO[C@@H]1COC(=O)CCc1ccccc1OCc1cccc(Oc2ccccc2)c1)C(=O)O", "inactive"),
]
